assay.target: α2 adrenoceptors (cortex, mostly α2A) (Ovis aries)
procedure.summary: [3H]RX821002 binding
Design: species or system sheep
assay.setup: read-out: affinity value (KDA1) of the radioligand; saturation experiments, cortical tissue, n=4-8
readout: Kd (pM)
Dear colleague, please return just the value in pM, with no unit written.

I would be grateful if you could share the reported Kd for COC1(C2=NCCN2)COc2ccccc2O1 (stereo not shown) [[^3H]RX821002] .
60

====

Measured pKd values are reported for all entries that follow.
assay.target: α2 adrenoceptors (striatum, α2A and α2C)
procedure.summary: [3H]RX821002 binding
Design: species or system sheep
assay.setup: read-out: KDB2; striatum; vs [3H]RX821002; two-state dimer model, second protomer
Where a name gives a salt, the structure may show the parent alone.
Here pKd is given on a logarithmic scale as minus log10 of the concentration in mol/L.

molecule	pKd
Clc1cccc(Cl)c1N=C1NCCN1 [Clonidine, clonidine hydrochloride]	7.70

// below: pKd requested for another molecule
I would be grateful if you could share the reported pKd for NCCc1ccc(O)c(O)c1 [DA, Dopamine hydrochloride] .
6.00
